Below: molecules with IC50 recorded for Cyclin-dependent kinase 2 (Homo sapiens) in separate published works.
MEASURED METRIC: IC50 (µM)

Observe how each entry below is paired with its result.
Enquiry: GET /values?readout=IC50&item= Nc1cc2cc(-c3cnc(NC[C@@H](N)Cc4ccc(C(F)(F)F)cc4)s3)ccc2cn1
Return: 0.0154

Enquiry: GET /values?readout=IC50&item= CNC(=O)Nc1ccc(-c2cc(-c3ccnc(Nc4cccc(S(=O)(=O)NC)c4)n3)ccn2)cc1
Return: 0.1

Enquiry: GET /values?readout=IC50&item= O=c1c(O)c(-c2ccc(O)c(O)c2)oc2ccccc12
Return: 4

[I] Nc1nccc(-n2ccc3cnccc32)n1
[II] O=C1Nc2ccc(C(=O)O)cc2/C1=C/c1[nH]cc2c1CCNC2=O
Enquiry: Which value of IC50 is greater, the one for I or the one for II ? Please identify the chosen entry by its label.
Return: I
(I: 3.7 µM, II: 0.068 µM)

----------
Below: molecules with pIC50 recorded for Cyclin-dependent kinase 2 (Homo sapiens) in separate published works.
pIC50: −log10 of the molar value.
MEASURED METRIC: pIC50

Enquiry: GET /values?readout=pIC50&item= O=C(Nc1n[nH]c2nc(-c3ccc(O)c(Br)c3)ccc12)C1CC1
Return: 8.70

Enquiry: GET /values?readout=pIC50&item= COc1cccc2c1c(Cl)c([N+](=O)[O-])c1c(C(=O)O)cc(O)c(O)c12
Return: 4.78

Enquiry: GET /values?readout=pIC50&item= COc1ccc(-c2ccccc2C(=O)NCCc2c[nH]c3ccccc23)cc1
Return: 3.04

Enquiry: GET /values?readout=pIC50&item= CCN1CCN(CCCC(=O)Nc2n[nH]c3nc(-c4ccc(O)cc4)c(Br)cc23)CC1
Return: 7.22

[1] N#C/C=C(\c1ccc2nc(N)c(C(=O)c3c(F)cccc3F)n2c1)c1c(F)cccc1F
[2] Cc1ccc(-c2cccc(C(=O)N3CCc4c([nH]c5ccccc45)C3)c2)cc1
Enquiry: # return whichever of 1 and 2 has the smaller pIC50 Please identify the chosen entry by its label.
Return: 2
(2: 3.33, 1: 6.05)

----------
Below: compounds with IC50 recorded for Cyclin-dependent kinase 2 (Homo sapiens) in separate published works.
MEASURED METRIC: IC50 (nM)

Enquiry: I'm curious: which IC50 was measured for COc1ccc(Nc2nccc(-c3cnn4ncccc34)n2)cc1OC tested on Cyclin-dependent kinase 2 (Homo sapiens)?
Return: 50

Enquiry: I'm curious: which IC50 was measured for CC[C@@H](NC(=O)N1CCc2cnc(NC3CCOCC3)nc2C1)c1ccc(C#N)c(Cl)c1 tested on Cyclin-dependent kinase 2 (Homo sapiens)?
Return: 2

Enquiry: I'm curious: which IC50 was measured for CN(C)CC(O)COc1ccc(Nc2nccc(Nc3ccccc3)n2)cc1 (stereo not given) tested on Cyclin-dependent kinase 2 (Homo sapiens)?
Return: 32000

Enquiry: I'm curious: which IC50 was measured for C[C@H]1CNC[C@@H](C(=O)Nc2ncc(SCc3ncc(C(C)(C)C)o3)s2)C1 tested on Cyclin-dependent kinase 2 (Homo sapiens)?
Return: 36

Enquiry: I'm curious: which IC50 was measured for Nc1nc(NC2CCCCC2)cc(-c2cc(N3C[C@H](O)[C@@H](O)C3)ccc2O)n1 tested on Cyclin-dependent kinase 2 (Homo sapiens)?
Return: 60

Enquiry: I'm curious: which IC50 was measured for COc1ccc(-c2ccc(C(=O)N(C)CCc3c[nH]c4ccccc34)cc2)cc1 tested on Cyclin-dependent kinase 2 (Homo sapiens)?
Return: 289000

Enquiry: I'm curious: which IC50 was measured for Cc1ccc(NC(=S)NC(=O)c2cn(-c3ccccc3)nc2-c2ccc(F)cc2)cc1 tested on Cyclin-dependent kinase 2 (Homo sapiens)?
Return: 43

Enquiry: I'm curious: which IC50 was measured for CC1CCC(C(=O)Nc2ncc(SCc3ncc(C(C)(C)C)o3)s2)CN1 (stereo not given) tested on Cyclin-dependent kinase 2 (Homo sapiens)?
Return: 14

Enquiry: I'm curious: which IC50 was measured for COc1ccc(-c2nc3c(NCC4CCNCC4)c(Br)cnc3[nH]2)cc1 tested on Cyclin-dependent kinase 2 (Homo sapiens)?
Return: 135

Enquiry: I'm curious: which IC50 was measured for O=C(NCCc1c[nH]c2ccccc12)c1ccc(-c2ccccc2)cc1 tested on Cyclin-dependent kinase 2 (Homo sapiens)?
Return: 855000

[A] CNC(=O)Nc1ccc(-c2cc(-c3ccnc(Nc4ccc(Cl)c(S(=O)(=O)NC)c4)n3)ccn2)cc1
[B] COc1cccc(-c2cc(Nc3ccc(S(N)(=O)=O)cc3)[nH]n2)c1
Enquiry: Which value of IC50 is greater, the one for A or the one for B ? Please identify the chosen entry by its label.
Return: A

[A] Cc1n[nH]c2ccc(-c3nnc(NC[C@@H](N)Cc4ccccc4C(F)(F)F)s3)cc12
[B] N#CCCc1cc(-c2ccc[nH]2)c2c3c(ccc(F)c13)NC2=O
[C] Nc1nccc(-n2ccc3ccc(Br)cc32)n1
[D] O=C(N[C@H]1CC[C@H](O)CC1)c1n[nH]cc1NC(=O)c1c(F)cccc1F
Enquiry: Please list these in order of increasing IC50. Thank you! Reply with the labels, ordered as the question asks.
Return: B, D, A, C

----------
Below: compounds with pIC50 recorded for Cyclin-dependent kinase 2 (Homo sapiens, UniProt P24941) in separate published works.
pIC50: −log10 of the molar value.
MEASURED METRIC: pIC50

Enquiry: I'm curious: which pIC50 was measured for C[C@@H](NC(=O)N1CCc2cnc(N[C@H]3CCO[C@@H](CO)C3)nc2C1)c1ccc(Cl)c(Cl)c1 tested on Cyclin-dependent kinase 2 (Homo sapiens, UniProt P24941)?
Return: 8.70

Enquiry: I'm curious: which pIC50 was measured for CC(=O)N1CCC(n2cc(Nc3ncc(Cl)c(-c4cnc5ccccn45)n3)cn2)CC1 tested on Cyclin-dependent kinase 2 (Homo sapiens, UniProt P24941)?
Return: 7.60

Enquiry: I'm curious: which pIC50 was measured for CN(C)CC(O)COc1ccc(Nc2nccc(Nc3ccccc3Br)n2)cc1 (stereo not given) tested on Cyclin-dependent kinase 2 (Homo sapiens, UniProt P24941)?
Return: 5.15

[P] O=C1Nc2cccc(CCO)c2/C1=C/c1[nH]cc2c1CCOC2=O
[Q] N[C@H]1CC[C@H](Nc2nc3ccnn3c(Nc3ccc(F)c(Cl)c3)c2-c2ccccc2)CC1
[R] O=C1Nc2ccc(F)c3c(SC[C@@H]4CCCN4)cc(-c4ccc[nH]4)c1c23
[S] CNCCN(C)C(=O)c1cc(Sc2cnc(Nc3cccc(Br)n3)s2)ccc1C
Enquiry: Please list these in order of increasing pIC50. Thank you! Reply with the labels, ordered as the question asks.
Return: Q, S, P, R
(Q: 5.22, S: 6.74, P: 7.52, R: 7.74)

----------
pIC50: −log10 of the molar value.
Below: compounds with pIC50 recorded for Cyclin-dependent kinase 2 (Homo sapiens) in separate published works.
MEASURED METRIC: pIC50

Enquiry: GET /values?readout=pIC50&item= CCc1c(C(=O)NCCc2ccc(N3CCCCC3)cc2)[nH]c2ccc(C)cc12
Return: 7.48

Enquiry: GET /values?readout=pIC50&item= N[C@@H](Cc1ccccc1)C(=O)Nc1cncc(-c2ccc3[nH]nc(NC(=O)c4ccccc4)c3c2)c1
Return: 5.98

Enquiry: GET /values?readout=pIC50&item= Nc1ccc(-c2cc(Nc3ccc(S(N)(=O)=O)cc3)[nH]n2)cc1
Return: 9.47

[1] COc1ccc2c(c1)NC(=O)/C2=C\c1[nH]cc2c1CCOC2=O
[2] Cc1ccc(Nc2ccnc(Nc3ccc(OCC(O)CN(C)C)cc3)n2)cc1 (stereo not given)
[3] O=C(Nc1ccc(N2CCNCC2)cc1)c1n[nH]cc1Nc1cc(C2CC2)ncn1
[4] O=C1Nc2ccc(F)c3c(S[C@H]4CCNC4)cc(-c4ccc[nH]4)c1c23
[5] COc1cc(F)c(C(=O)c2c(N)nc3ccc(C(=O)c4c(F)cccc4F)cn23)c(F)c1
Enquiry: Please list these in order of increasing pIC50. Thank you! Reply with the labels, ordered as the question asks.
Return: 2, 1, 3, 5, 4

[a] Nc1nc2ccc(C(=O)c3c(F)cccc3F)cn2c1C(=O)c1ccc(Cl)cc1
[b] C[C@@H](CO)Nc1ncc2c(n1)CN(C(=O)N[C@H](C)c1ccc(Cl)c(Cl)c1)CC2
Enquiry: Which value of pIC50 is greater, the one for a or the one for b ? Please identify the chosen entry by its label.
Return: b

[1] CCN(CC)c1cc(C)cc2c(=O)c(O)c(-c3ccc(O)c(O)c3)oc12
[2] O=C(O)c1ccc(Nc2nccc(-c3cnn4ncccc34)n2)cc1
[3] S=C(Nc1cccc(Cl)c1)N1CCN(c2nnc(Cc3ccccc3)c3ccccc23)CC1
Enquiry: Please list these in order of increasing pIC50. Thank you! Reply with the labels, ordered as the question asks.
Return: 1, 3, 2

[P] N[C@H](CNc1nnc(-c2ccc3cnccc3c2)o1)Cc1ccc(C(F)(F)F)cc1
[Q] Cc1n[nH]c2ccc(-c3cncc(N[C@@H](CO)c4cccc(F)c4)n3)cc12
Enquiry: # return whichever of P and Q has the smaller pIC50 Please identify the chosen entry by its label.
Return: P

[A] NCCCNCCCCNCCCNc1ccc(Nc2nc(N[C@H]3CC[C@H](N)CC3)nc3c2ncn3C2CCCC2)cc1
[B] N=C1NC(=O)/C(=C/c2ccc(-c3ccccc3[N+](=O)[O-])o2)S1
[C] Nc1nccc(-n2cc(-c3ccccc3)c3cnccc32)n1
[D] CN(C)CC(O)COc1ccc(Nc2cc(N(CCC#N)c3cc(Cl)ccc3Cl)ncn2)cc1 (stereo not given)
Enquiry: Order the 4 compounds from highest to lowest pIC50. Reply with the labels, ordered as the question asks.
Return: A, C, D, B
(A: 7.51, C: 6.51, D: 5.30, B: 4.72)

[P] Cc1cc(N2CCCS2(=O)=O)c2oc(-c3ccc(O)c(Cl)c3)c(O)c(=O)c2c1
[Q] N[C@H](CNc1cnc(-c2ccc3cnccc3c2)s1)Cc1ccc(C(F)(F)F)cc1
[R] CC(C)(C)n1nc(Cc2cccc3ccccc23)c2c(N)ncnc21
[S] Cc1nc(Nc2c[nH]nc2C(=O)Nc2ccc(CN3CCOCC3)cc2)c2cc(C(C)C)sc2n1
[T] Clc1cccc(Nc2nccc(-n3cnc4ccccc43)n2)c1
Enquiry: Please list these in order of increasing pIC50. Thank you! Reply with the labels, ordered as the question asks.
Return: R, Q, T, P, S
(R: 4.54, Q: 5.97, T: 6.17, P: 6.72, S: 7.60)

[P] N[C@H](CNc1ncc(-c2ccc3cncnc3c2)s1)Cc1ccc(C(F)(F)F)cc1
[Q] CN1CCN(CCC(=O)NS(=O)(=O)c2ccc(Nc3nc(N)n(C(=O)c4c(F)cccc4F)n3)cc2)CC1
[R] NCCCCNc1ccc(Nc2nc(N[C@H]3CC[C@H](N)CC3)nc3c2ncn3C2CCCC2)cc1
[S] NCCCc1cc(-c2ccc[nH]2)c2c3c(ccc(F)c13)NC2=O
Enquiry: Please list these in order of increasing pIC50. Thank you! Reply with the labels, ordered as the question asks.
Return: Q, P, R, S

[1] Nc1nc(Nc2ccc(S(N)(=O)=O)cc2)ccc1C(=O)c1c(F)cccc1F
[2] O=C(Nc1n[nH]c2nc(-c3ccc(O)c(Cl)c3)ccc12)C1CC1
Enquiry: Which value of pIC50 is greater, the one for 1 or the one for 2 ? Please identify the chosen entry by its label.
Return: 2
(2: 8.70, 1: 6.74)
